Overview of reported cell viability across a group of molecules:
# System: HCI16 (cells of a triple-negative basal-like breast cancer xenograft)
# procedureText: cell viability (% of vehicle); higher = less cytotoxic;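 further: PDX cells carrying CMV promoter-driven luciferase, viability read as total photon flux per second by IVIS imaging following D-luciferin, vehicle control 0.1% DMSO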
# testParameters: 10 µM; 72 h

| molecule | targetUnderTest | testValue |
| --- | --- | --- |
| O=C(NC1CCN(CCCCC2(C(=O)NCC(F)(F)F)c3ccccc3-c3ccccc32)CC1)c1ccccc1-c1ccc(C(F)(F)F)cc1 [Lomitapide] | HCI16 | 47.3 |
| OCC(CO)NC1CC(O)(CO)C(O)C(O)C1O (stereo not drawn) | HCI16 | 129 |

Next up:
Q) Given CCN(CC)CCOC(=O)C(c1ccccc1)c1ccccc1.Cl [Adiphenine HCl] , respond with its cell viability.
A) 110

###

# Test system: HCI01 (cells of a triple-negative basal-like breast cancer xenograft)
# procedureText: cell viability (% of vehicle); higher = less cytotoxic
# testParameters: 10 µM; 72 h
cell viability strictly under 100 means 1 (yes); at 100 or over means 0 (no).

Observe how each entry below is paired with its result.
| compound | classification |
| --- | --- |
| CC(C)(C)NCC(O)COc1cccc2c1CCC(O)=N2.Cl (configuration not stated) [Carteolol HCl] | 1 (yes) |
| CCCC(CCC)C(=O)[O-].[Na+] [Valproic acid sodium salt (Sodium valproate)] | 0 (no) |
| Cc1ccc(-c2cc(C(F)(F)F)nn2-c2ccc(S(N)(=O)=O)cc2)cc1 [Celecoxib] | 0 (no) |
| Cl.NC(CO)C(=O)NNCc1ccc(O)c(O)c1O (configuration not stated) [Benserazide HCl] | 1 (yes) |
| CC[C@@]1(O)C(=O)OCc2c1cc1n(c2=O)Cc2cc3c(CN(C)C)c(O)ccc3nc2-1 [Topotecan] | 1 (yes) |

Q) Quick check: does CCC(C)C(=O)OC1CC(C)C=C2C=CC(C)C(CCC3CC(O)CC(=O)O3)C21 (configuration not stated) [Lovastatin] have cell viability under 100?
A) 0 (no)

Q) Quick check: does CC(C)(C#N)c1cc(Cn2cncn2)cc(C(C)(C)C#N)c1 [Anastrozole] have cell viability under 100?
A) 0 (no)

Q) Quick check: does CCCCOc1ccc(C(=O)CCN2CCCCC2)cc1.Cl [Dyclonine HCl] have cell viability under 100?
A) 1 (yes)

###

# Test system: HCI01
# procedureText: cell viability (% of vehicle); higher = less cytotoxic
# testParameters: 10 µM; 72 h
cell viability strictly under 100 means rule met; at 100 or over means rule not met.

| compound | targetUnderTest | classification |
| --- | --- | --- |
| CCC(=O)OC1(C(=O)CCl)C(C)CC2C3CC(F)C4=CC(=O)C=CC4(C)C3(F)C(O)CC21C (stereo not given) [Halobetasol Propionate] | HCI01 | rule not met |
| Cc1cccc(C)c1NC(=O)C1CCCCN1C.Cl (stereo not given) [Mepivacaine HCl] | HCI01 | rule met |
| CNC(=O)C(NC(=O)C(CC(C)C)C(O)C(=O)NO)C(C)(C)C (stereo not given) [Marimastat] | HCI01 | rule not met |
| CCOC(=O)OC1(C(=O)OCCl)CCC2C3CCC4=CC(=O)C=CC4(C)C3C(O)CC21C (stereo not given) [Loteprednol etabonate] | HCI01 | rule met |
| CC1(C)SC2C(NC(=O)Cc3ccccc3)C(=O)N2C1C(=O)[O-].[Na+] (stereo not given) [Penicillin G Sodium] | HCI01 | rule not met |

Q) Quick check: does O=C1c2ccccc2C(=O)C1c1ccccc1 [Phenindione] have cell viability under 100?
A) rule not met

Q) Quick check: does CCNC(=O)CCCC=CCC1C(O)CC(O)C1C=CC(O)CCc1ccccc1 (stereo not given) [Bimatoprost] have cell viability under 100?
A) rule met

Q) Quick check: does CCCNC(C)C(=O)Nc1c(C)csc1C(=O)OC.Cl (stereo not given) [Articaine HCl] have cell viability under 100?
A) rule not met

###

# Tested on: WHIM30 (cells of a triple-negative basal-like breast cancer xenograft)
# procedureText: cell viability (% of vehicle); higher = less cytotoxic
# testParameters: 10 µM; 72 h
Overview of reported cell viability across a group of compounds:

Below: 10 compounds and their reported cell viability.
| compound | cell viability |
| --- | --- |
| CC1=NN(c2ccccc2)C(=O)C1 [Edaravone] | 130 |
| CN(C)CCC(c1ccc(Br)cc1)c1ccccn1.O=C(O)C=CC(=O)O (stereo unspecified) [Brompheniramine hydrogen maleate] | 113 |
| COc1cc2ncnc(Nc3ccc(F)c(Cl)c3)c2cc1OCCCN1CCOCC1 [Gefitinib (ZD1839)] | 128 |
| CN(C)CCOc1ccc(C(=C(CCCl)c2ccccc2)c2ccccc2)cc1.O=C(O)CC(O)(CC(=O)O)C(=O)O [Toremifene Citrate] | 54.4 |
| [I-].[K+] [Potassium Iodide] | 121 |
| CNC1CCC(c2ccc(Cl)c(Cl)c2)c2ccccc21.Cl (stereo unspecified) [Sertraline HCl] | 58.9 |
| CC1OC(n2cc(F)c(=O)[nH]c2=O)C(O)C1O (stereo unspecified) [Doxifluridine] | 175 |
| COc1c(C)c2c(c(O)c1CC=C(C)CCC(=O)O)C(=O)OC2 [Mycophenolic acid] | 151 |
| CN(C)CC=CC(=O)Nc1cc2c(Nc3ccc(F)c(Cl)c3)ncnc2cc1OC1CCOC1.O=C(O)C=CC(=O)O.O=C(O)C=CC(=O)O (stereo unspecified) [Afatinib dimaleate] | 54.6 |
| COc1ccccc1Oc1c(NS(=O)(=O)c2ccc(C(C)(C)C)cc2)nc(-c2ncccn2)nc1OCCO [Bosentan] | 114 |

Q) Given Cc1c(Cl)cccc1Nc1ccccc1C(=O)O [Tolfenamic Acid] , respond with its cell viability.
A) 77.7

Q) Given COC(=O)NC(C(=O)N1CCCC1c1ncc(-c2ccc(-c3ccc(-c4cnc(C5CCCN5C(=O)C(NC(=O)OC)C(C)C)[nH]4)cc3)cc2)[nH]1)C(C)C (stereo unspecified) , respond with its cell viability.
A) 102

Q) Given O=c1cc(O)c(Cl)c[nH]1 [Gimeracil] , respond with its cell viability.
A) 101

Q) Given CN(CC=CC#CC(C)(C)C)Cc1cccc2ccccc12 [Terbinafine] , respond with its cell viability.
A) 117

Q) Given CC(=O)Oc1ccccc1C(=O)O [Aspirin (Acetylsalicylic acid)] , respond with its cell viability.
A) 160

###

# Tested on: WHIM2 (cells of a triple-negative basal-like breast cancer xenograft)
# procedureText: cell viability (% of vehicle); higher = less cytotoxic
# testParameters: 10 µM; 72 h
assayMetric: cell viability
// return a plain number; no unit text

Q) Given COc1cccc2c1C(=O)c1c(O)c3c(c(O)c1C2=O)CC(O)(C(=O)CO)CC3OC1CC(N)C(O)C(C)O1 (stereo not drawn) , respond with its cell viability.
A) 50.6

Q) Given O=C(CCc1ccc(O)cc1)c1c(O)cc(O)cc1OC1OC(CO)C(O)C(O)C1O (stereo not drawn) , respond with its cell viability.
A) 96.2

Q) Given CCCNC1CCc2nc(N)sc2C1.Cl.Cl.O (stereo not drawn) [Pramipexole 2HCl Monohydrate] , respond with its cell viability.
A) 94.3

###

Overview of reported cell viability across a group of molecules:
# Test system: WHIM30
# procedureText: cell viability (% of vehicle); higher = less cytotoxic
# testParameters: 10 µM; 72 h
// return a plain number; no unit text

Below: 2 molecules and their reported cell viability.
| molecule | cell viability |
| --- | --- |
| NC(=O)c1cn(Cc2c(F)cccc2F)nn1 [Rufinamide] | 124 |
| CC(C=CC1=C(C)CCCC1(C)C)=CC=CC(C)=CC(=O)O [Isotretinoin] | 143 |

Next up:
Q) Given COc1cc2c(Oc3ccc(NC(=O)C4(C(=O)Nc5ccc(F)cc5)CC4)cc3F)ccnc2cc1OCCCN1CCOCC1 , respond with its cell viability.
A) 64.8

###

# Test system: WHIM30
# procedureText: cell viability (% of vehicle); higher = less cytotoxic
# testParameters: 10 µM; 72 h
assayMetric: cell viability
// return a plain number; no unit text

Below: 5 molecules and their reported cell viability.
| molecule | cell viability |
| --- | --- |
| Cl.c1ccc2c(CC3=NCCN3)cccc2c1 [Naphazoline HCl] | 122 |
| CS(=O)(=O)CCNCc1ccc(-c2ccc3ncnc(Nc4ccc(OCc5cccc(F)c5)c(Cl)c4)c3c2)o1.Cc1ccc(S(=O)(=O)O)cc1.Cc1ccc(S(=O)(=O)O)cc1 [Lapatinib Ditosylate] | 47.4 |
| CCC(CO)Nc1nc(NCc2ccccc2)c2ncn(C(C)C)c2n1 (configuration not stated) [Roscovitine (Seliciclib,CYC202)] | 123 |
| O=C(NC(CO)C(O)c1ccc([N+](=O)[O-])cc1)C(Cl)Cl (configuration not stated) | 100 |
| CN(C)CC(c1ccc(O)cc1)C1(O)CCCCC1 (configuration not stated) | 124 |

Q) Given CCCC(NC(=O)C1C2CCCC2CN1C(=O)C(NC(=O)C(NC(=O)c1cnccn1)C1CCCCC1)C(C)(C)C)C(=O)C(=O)NC1CC1 (configuration not stated) , respond with its cell viability.
A) 165

Q) Given COc1c2ccoc2cc2oc(=O)ccc12 , respond with its cell viability.
A) 93

###

Overview of reported cell viability across a group of compounds:
# System: HCI01
# procedureText: cell viability (% of vehicle); higher = less cytotoxic
# testParameters: 10 µM; 72 h
// return a plain number; no unit text

Below: 3 compounds and their reported cell viability.
| compound | assayMetric | testValue |
| --- | --- | --- |
| CC(=O)C1CCC2C3CC=C4CC(O)CCC4(C)C3CCC12C (configuration not stated) [Pregnenolone] | cell viability | 141 |
| FC(F)(F)c1ccc(C=Cc2nc(COc3ccc(CCCCn4ccnn4)cc3)co2)cc1 [Mubritinib (TAK 165)] | cell viability | 111 |
| CC(=O)OCC(=O)[C@@]12OC(C)(C)O[C@@H]1C[C@H]1[C@@H]3C[C@H](F)C4=CC(=O)C=C[C@]4(C)[C@@]3(F)[C@@H](O)C[C@@]12C [Fluocinonide] | cell viability | 75.9 |

Q) Given CC(C)C1C(=O)NC(CCCN=C(N)N)C(=O)NCC(=O)NC(CC(=O)O)C(=O)NC(Cc2ccccc2)C(=O)N1C (configuration not stated) [Cilengitide] , respond with its cell viability.
A) 114

Q) Given O=C(C=CC=Cc1ccc2c(c1)OCO2)N1CCCCC1 [Piperine] , respond with its cell viability.
A) 158

Q) Given COc1ccccc1OCC(O)CO (configuration not stated) [Guaifensin] , respond with its cell viability.
A) 108

Q) Given CN(CC/C=C1C2=CC=CC=C2C=CC3=CC=CC=C3\1)C.Cl [Cyclobenzaprine HCl] , respond with its cell viability.
A) 98.1

Q) Given CC1(C)CCC(c2ccc(Cl)cc2)=C(CN2CCN(c3ccc(C(=O)NS(=O)(=O)c4ccc(NC(CCN5CCOCC5)CSc5ccccc5)c(S(=O)(=O)C(F)(F)F)c4)cc3)CC2)C1 (configuration not stated) [ABT-263 (Navitoclax)] , respond with its cell viability.
A) 28

Q) Given CCCCCN(C)CCC(O)(P(=O)([O-])O)P(=O)(O)O.O.[Na+] [Ibandronate sodium] , respond with its cell viability.
A) 113

Q) Given CCC1OC(=O)CC(O)C(C)C(OC2OC(C)C(OC3CC(C)(O)C(O)C(C)O3)C(N(C)C)C2O)C(CC=O)CC(C)C(=O)C=CC(C)=CC1COC1OC(C)C(O)C(OC)C1OC.O=C(O)C(O)C(O)C(=O)O (configuration not stated) [Tylosin tartrate] , respond with its cell viability.
A) 75.1

Q) Given CCCCc1ncc(C=C(Cc2cccs2)C(=O)O)n1Cc1ccc(C(=O)O)cc1.CS(=O)(=O)O [Eprosartan Mesylate] , respond with its cell viability.
A) 156

Q) Given Cc1nc(NC(=O)N2CCCC2C(N)=O)sc1-c1ccnc(C(C)(C)C(F)(F)F)c1 (configuration not stated) , respond with its cell viability.
A) 85.7

Q) Given COCCc1ccc(OCC(O)CNC(C)C)cc1.COCCc1ccc(OCC(O)CNC(C)C)cc1.O=C(O)C(O)C(O)C(=O)O (configuration not stated) [Metoprolol Tartrate] , respond with its cell viability.
A) 126

Q) Given Cl.O=C1c2cccc3c2C(CCC3)CN1C1CN2CCC1CC2 (configuration not stated) [Palonosetron HCl] , respond with its cell viability.
A) 86

Q) Given NC(CSCCCO)C(=O)O (configuration not stated) [Fudosteine] , respond with its cell viability.
A) 91

Q) Given S=c1nc[nH]c2nc[nH]c12 [Mercaptopurine (6-MP)] , respond with its cell viability.
A) 108

Q) Given CC(C)=CCCC(C)=CCCC(C)=CCSc1ccccc1C(=O)O [Salirasib] , respond with its cell viability.
A) 69.5

Q) Given CCC(NC(=O)C(C)NC)C(=O)N1CC(O)CC1Cc1c(-c2[nH]c3cc(F)ccc3c2CC2CC(O)CN2C(=O)C(CC)NC(=O)C(C)NC)[nH]c2cc(F)ccc12 (configuration not stated) , respond with its cell viability.
A) 133

Q) Given C#CC1(O)CCC2C3CCC4=CC(=O)CCC4C3CCC21C (configuration not stated) [Norethindrone] , respond with its cell viability.
A) 91.4

Q) Given O=C(c1cc(Cc2n[nH]c(=O)c3ccccc23)ccc1F)N1CCN(C(=O)C2CC2)CC1 , respond with its cell viability.
A) 166

Q) Given CCCCN1CCCCC1C(=O)Nc1c(C)cccc1C.Cl (configuration not stated) [Levobupivacaine HCl] , respond with its cell viability.
A) 109

Q) Given OC[C@@H](O)[C@@H](O)[C@H](O)[C@H](O)CO [D-Mannitol] , respond with its cell viability.
A) 74.7
